Study Target: TAK1-TAB1 fusion protein (Homo sapiens)
Construct: purchased Carna
Sequence (O43318 with tags, fused parts or gaps limits assumed): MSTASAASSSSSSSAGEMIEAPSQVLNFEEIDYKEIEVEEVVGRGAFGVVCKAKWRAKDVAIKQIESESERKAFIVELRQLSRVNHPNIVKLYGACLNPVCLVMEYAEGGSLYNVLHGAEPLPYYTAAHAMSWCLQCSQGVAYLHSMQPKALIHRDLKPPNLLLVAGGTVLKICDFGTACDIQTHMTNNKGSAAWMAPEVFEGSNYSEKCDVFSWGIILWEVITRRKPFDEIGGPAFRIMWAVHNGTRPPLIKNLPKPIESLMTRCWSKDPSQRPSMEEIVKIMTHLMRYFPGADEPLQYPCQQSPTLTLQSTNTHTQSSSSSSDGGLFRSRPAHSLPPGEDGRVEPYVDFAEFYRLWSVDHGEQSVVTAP
Test Protocol: TAK1 biochemical assay (AlphaScreen, GST-MAP2K7 substrate)
Test Settings: TAK1-TAB1 fusion protein, GST-MAP2K7 substrate; read-out: mean TAK1 IC50 (Col. A)
Counter-ions that a name gives are not always drawn.
Kindly state IC50 for each of the entries shown.

Nc1ncc(-c2cnn(C3CCNCC3)c2)c2cc(-c3ccccc3)oc12 [Example 2]    1000 to 10000 nM
Cc1nn(C[C@H](O)CO)cc1-c1cnc(N)c2oc(-c3csc4cnccc34)cc12 [Example 318]    1000 to 10000 nM
CC(C)(C)OC(=O)N1CCC(n2cc(-c3cnc(N)c4oc(-c5cccc6ccsc56)cc34)cn2)CC1 [Example 17A]    > 10000 nM
Nc1ncc(-c2cnn(C3CCN(C(=O)C4CC4)CC3)c2)c2cc(-c3csc4cnccc34)oc12 [Example 228, diformate salt]    < 100 nM
CC(=O)N1[C@@H]2CC[C@H]1C[C@H](n1cc(-c3cnc(N)c4oc(-c5cccc6cnsc56)cc34)cn1)C2 [Example 327]    < 100 nM

List reported IC50 for each of these molecules:
1. Nc1ncc(-c2cnn(C3CNC3)c2)c2cc(-c3cccc4cnccc34)oc12 [Example 64]
2. Nc1ncc(-c2cnn(C3CCNCC3)c2)c2c(Cl)c(-c3ccc4[nH]ccc4c3)oc12 [Example 14, hydrochloride]

Reply text:
1: 100 to 1000 nM; 2: 1000 to 10000 nM

* * *

System: pJNK in HCT-116 cells
Test Protocol: Phospho-JNK (Thr183/Tyr185) Meso Scale ELISA assay, TNFα-stimulated HCT-116 cells
Format: cell-based
Test Settings: Homo sapiens, read-out: mean HCT-116 pJNK ELISA IC50 (Col. B)
pIC50: −log10 of the molar value. Structures can show the parent of a compound that is named as a salt.
Provide the reported pIC50 of each item.

Here is how some compounds turned out for pIC50.
Nc1ncc(-c2cnn(C3CCNCC3)c2)c2cc(-c3cccc4cnccc34)oc12    6.00 to 7.00
Nc1ncc(-c2cn[nH]c2)c2cc(-c3c[nH]c4cnccc34)oc12 [Example 87, trifluoroacetic acid salt]    6.00 to 7.00
Nc1ncc(-c2cnn([C@@H]3C[C@H]4CC[C@@H](C3)N4C=O)c2)c2cc(-c3csc4cnccc34)oc12    > 7.00
CC(=O)N1CCC(n2cc(-c3cnc(N)c4oc(-c5csc6cnccc56)cc34)cn2)CC1    > 7.00

Count: 5. Required value per item: pIC50.
1. COCCN1CCC(n2cc(-c3cnc(N)c4oc(-c5cccc6cnccc56)cc34)cn2)CC1
2. Nc1ncc(-c2cnn([C@H]3CC[C@H](O)CC3)c2)c2cc(-c3cccc4cnsc34)oc12
3. CC(C)n1cc(-c2cnc(N)c3oc(-c4c[nH]c5cnccc45)cc23)cn1
4. CC(=O)N1CCC(n2cc(-c3cnc(N)c4oc(-c5ccc6c(c5)C(=O)NC6)cc34)cn2)CC1
5. CC(=O)N1CCC(n2cc(-c3cnc(N)c4oc(-c5cccc(S(C)(=O)=O)c5)cc34)cn2)CC1

Reply text:
["6.00 to 7.00", "> 7.00", "6.00 to 7.00", "5.00 to 6.00", "5.00 to 6.00"]

* * *

Tested on: p-p38 in HCT-116 cells
Test Protocol: Phospho-p38 Meso Scale ELISA assay, TNFα-stimulated HCT-116 cells
Type: cell-based
Test Settings: Homo sapiens, read-out: mean HCT-116 p-p38 ELISA IC50 (Col. C)
pIC50: −log10 of the molar value. Counter-ions that a name gives are not always drawn.
Property: pIC50

Look over these answered cases.
CC(=O)N1CCC(n2cc(-c3cnc(N)c4oc(-c5ccc6c(cnn6C)c5)cc34)cn2)CC1    5.00 to 6.00
Nc1ncc(-c2cnn([C@H]3CC[C@H](O)CC3)c2)c2cc(-c3ccc(F)c4cnsc34)oc12 [Example 230, diformate salt]    6.00 to 7.00
CC(=O)N1CCC(n2cc(-c3cnc(N)c4oc(-c5cccc6c5oc5ccccc56)cc34)cn2)CC1    5.00 to 6.00
CC(=O)N1CCC(n2cc(-c3cnc(N)c4oc(-c5cc(C(F)(F)F)cc(C(F)(F)F)c5)cc34)cn2)CC1    5.00 to 6.00
CC(=O)N1CCC(n2cc(-c3cnc(N)c4oc(-c5cccc(OCC#N)c5)cc34)cn2)CC1    6.00 to 7.00
CC(=O)N1CCC(n2cc(-c3cnc(N)c4oc(-c5cccc6ccnn56)cc34)cn2)CC1    6.00 to 7.00
Nc1ncc(-c2cnn(C3CCNCC3)c2)c2cc(-c3ccc4[nH][nH]c(=O)c4c3)oc12 [Example 55, trifluoroacetic acid salt]    < 5.00
Cc1nn(C)cc1-c1cnc(N)c2oc(-c3csc4cnccc34)cc12    5.00 to 6.00
CSc1cccc(-c2cc3c(-c4cnn(C5CCN(C(C)=O)CC5)c4)cnc(N)c3o2)c1    5.00 to 6.00
CC(=O)N1CCC(n2cc(-c3cnc(N)c4oc(-c5csc6cncc(F)c56)cc34)cn2)CC1 [Example 254, trifluoroacetic Acid Salt]    6.00 to 7.00

Report pIC50 for every entry below.
1. CC(=O)N1CCC(n2cc(-c3cnc(N)c4oc(-c5c(C)sc6cnccc56)cc34)cn2)CC1 [Example 253, trifluoroacetate]
2. Nc1ncc(-c2cnn(C3CCNCC3)c2)c2cc(-c3ccc4[nH]ncc4c3)oc12 [Example 18, hydrochloride]
3. CC(=O)N1CCC(n2cc(-c3cnc(N)c4oc(-c5cn[nH]c5)cc34)cn2)CC1
4. Nc1ncc(-c2cn[nH]c2)c2cc(-c3c[nH]c4cnccc34)oc12 [Example 87, trifluoroacetic acid salt]

Reply text:
1: 5.00 to 6.00; 2: 6.00 to 7.00; 3: < 5.00; 4: 5.00 to 6.00

* * *

Answer each item with its documented pIC50.
Study Target: TAK1-TAB1 fusion protein (Homo sapiens)
Construct: purchased Carna
Test Protocol: TAK1 biochemical assay (AlphaScreen, GST-MAP2K7 substrate)
Test Settings: TAK1-TAB1 fusion protein, GST-MAP2K7 substrate; read-out: mean TAK1 IC50 (Col. A)
pIC50: −log10 of the molar value. Counter-ions that a name gives are not always drawn.

Example entries begin here.
Cc1c(-c2cccc3nnsc23)oc2c(N)ncc(-c3cnn([C@H]4CC[C@H](O)CC4)c3)c12 [Example 362]    > 7.00
CCOC(=O)COc1cccc(-c2cc3c(-c4cnn(C5CCN(C(C)=O)CC5)c4)cnc(N)c3o2)c1 [Example 211]    < 5.00
Nc1ncc(-c2cnn([C@H]3CC[C@H](O)CC3)c2)c2cc(-c3csc4cnc(Cl)cc34)oc12 [Example 247, bis(trifluoroacetate)]    6.00 to 7.00
Nc1ncc(-c2cnn(C3CCNCC3)c2)c2cc(-c3ccc4[nH][nH]c(=O)c4c3)oc12 [Example 55, trifluoroacetic acid salt]    > 7.00
COCc1nc2cccc(-c3cc4c(-c5cnn([C@H]6CC[C@H](O)CC6)c5)cnc(N)c4o3)c2s1 [Example 349, Trifluoroacetate]    > 7.00
Nc1ncc(-c2cnn(C3CCN(C(=O)CCC4CCCC4)CC3)c2)c2cc(-c3csc4cnccc34)oc12 [Example 335]    5.00 to 6.00

Now for the molecule whose pIC50 we want.
Inquiry: Find pIC50 (TAK1-TAB1 fusion protein (Homo sapiens)) for the entry CC(=O)N1CCC(n2cc(-c3cnc(N)c4oc(-c5cc(C)c(O)c(C)c5)cc34)cn2)CC1 [Example 138]
Reply text: 5.00 to 6.00

* * *

For each of the molecules below, state its IC50.
Test system: p-p38 in HCT-116 cells
Test Protocol: Phospho-p38 Meso Scale ELISA assay, TNFα-stimulated HCT-116 cells
Format: cell-based
Test Settings: Homo sapiens, read-out: mean HCT-116 p-p38 ELISA IC50 (Col. C)
Where a name gives a salt, the structure may show the parent alone.

Known results for molecules:
COc1cc2c(-c3cc4c(-c5cnn(C6CCN(C(C)=O)CC6)c5)cnc(N)c4o3)csc2cn1 [Example 243]    1 to 10 µM
Nc1ncc(-c2cnn([C@H]3CC[C@H](O)CC3)c2)c2cc(-c3cc(F)cc4cnsc34)oc12 [Example 238, diformate salt]    0.1 to 1 µM
CC(=O)N1CCC(n2cc(-c3cnc(N)c4oc(-c5ccc(S(C)(=O)=O)cc5)cc34)cn2)CC1 [Example 129]    > 10 µM
CC(=O)N1CCC(n2cc(-c3cnc(N)c4oc(-c5ccc6ncn(C)c6c5)cc34)cn2)CC1 [Example 111]    > 10 µM

I'm hoping you can list IC50 for every molecule here, please.
1. CS(=O)(=O)N1CCC(n2cc(-c3cnc(N)c4oc(-c5cccc6cnccc56)cc34)cn2)CC1 [Example 80]
2. CC(=O)N1CCC(n2cc(-c3cnc(N)c4oc(-c5cccc6c5OC(F)(F)O6)cc34)cn2)CC1 [Example 191]
3. Nc1ncc(-c2cnn(C3CCN(CCO)CC3)c2)c2cc(-c3cccc4cnccc34)oc12 [Example 85]
4. CC(=O)N1CCC(n2cc(-c3cnc(N)c4oc(-c5ccc6[nH]ccc6c5)cc34)cn2)CC1 [Example 92]
5. Nc1ncc(-c2cnn(C3CCNCC3)c2)c2cc(-c3ccc4[nH]ccc4c3)oc12 [Example 38]
6. Nc1ncc(-c2cnn([C@H]3CC[C@H](O)CC3)c2)c2cc(-c3csc4cnccc34)oc12 [Example 233]

Reply text:
1: 0.1 to 1 µM; 2: 0.1 to 1 µM; 3: 0.1 to 1 µM; 4: 0.1 to 1 µM; 5: 1 to 10 µM; 6: < 0.1 µM

Consider the following items and state reported IC50 for each.
1. CC(=O)N1CCC(n2cc(-c3cnc(N)c4oc(-c5cccc6ccccc56)cc34)cn2)CC1 [Example 105]
2. CC(=O)N1CCC(n2cc(-c3cnc(N)c4oc(-c5ccc6sccc6c5)cc34)cn2)CC1 [Example 106]
3. CC(C)C(=O)N1CCC(n2cc(-c3cnc(N)c4oc(-c5cccc6cnccc56)cc34)cn2)CC1 [Example 51]
4. COc1nn([C@H]2CC[C@@H](O)CC2)cc1-c1cnc(N)c2oc(-c3csc4cnccc34)cc12 [Example 303]
5. CNc1ncc(-c2cnn(C3CCN(C(C)=O)CC3)c2)c2cc(-c3c[nH]c4cnccc34)oc12 [Example 280, trifluoroacetic acid salt]

Reply text:
1: 1 to 10 µM; 2: 0.1 to 1 µM; 3: < 0.1 µM; 4: 1 to 10 µM; 5: 0.1 to 1 µM
